Some molecules, each annotated with its measured logD.
- measurement-description: Lipophilicity, log D at pH 7.4
- Type: physicochemical
- stated-conditions: buffer
// keep it numeric: no unit symbol after the value

CC(C)CCn1c(=O)n(C(=O)N[C@H](C(N)=O)C(C)(C)C)c2ccccc21: 3.4

Query: Param item = CC(C)(O)Cn1c(=O)n(C(=O)N[C@H](C(N)=O)C(C)(C)C)c2ccccc21 ; retrieve measured logD.
Result: 2.2

Query: Given the entry CN(C)CCn1c(=O)n(C(=O)N[C@H](C(N)=O)C(C)(C)C)c2ccccc21 , report its measured logD.
Result: 1.5

Query: Quick one: logD for CC(C)(C)[C@H](NC(=O)n1c(=O)n(CCC2CCOCC2)c2ccccc21)C(N)=O ?
Result: 2.4

Query: Can you look up the measured logD of CC(C)(O)CCn1c(=O)n(C(=O)N[C@H](C(N)=O)C(C)(C)C)c2ccccc21 for me?
Result: 2.2

Query: logD lookup needed for CC(C)(C)[C@H](NC(=O)n1c(=O)n(CC2(O)CCOCC2)c2ccccc21)C(N)=O , thanks.
Result: 1.6

Query: State the recorded logD for this entry: CC(C)(C)[C@H](NC(=O)n1c(=O)n(CC2CCCO2)c2ccccc21)C(N)=O (some centres undefined)
Result: 2.1

Query: What does the data say about its logD? Entry: CC(C)(C)[C@H](NC(=O)n1c(=O)n(CCC2(O)CCOCC2)c2ccccc21)C(N)=O
Result: 1.9

Query: Bench note: what logD did CC(C)(C)[C@H](NC(=O)n1c(=O)n(CCN2CCCC2)c2ccccc21)C(N)=O show?
Result: 1.5
